Values compiled from ChEMBL document CHEMBL4138174.

ASSAY_EXPLANATION: Cytotoxicity against human WM9 cells assessed as reduction in cell viability after 48 hrs by MTT assay
Format: functional, cell-based
ASSAY_CONDITIONS: Homo sapiens, WM9, 48 h
Form field: IC50 (one value per entry).
Quick reminder: number only, in µM, skip the unit.

The examples below pair each entry with its known result.
I am curious: what IC50 value has been reported for CCCCNC(=O)Nc1cc(OC)c2cc1C[C@H]1c3c(cc(OC)c(OC)c3Oc3cc4c(cc3OC)CCN(C)[C@H]4Cc3ccc(cc3)O2)CCN1C ?
5.12

I am curious: what IC50 value has been reported for COc1ccc(NC(=S)Nc2cc(OC)c3cc2C[C@H]2c4c(cc(OC)c(OC)c4Oc4cc5c(cc4OC)CCN(C)[C@H]5Cc4ccc(cc4)O3)CCN2C)cc1 ?
5.4

I am curious: what IC50 value has been reported for COc1cc(NC(=O)Nc2ccc(C(F)(F)F)cc2)c2cc1Oc1ccc(cc1)C[C@H]1c3cc(c(OC)cc3CCN1C)Oc1c(OC)c(OC)cc3c1[C@H](C2)N(C)CC3 ?
4.15

I am curious: what IC50 value has been reported for COc1cc(NC(=O)N2c3ccccc3Sc3ccccc32)c2cc1Oc1ccc(cc1)C[C@H]1c3cc(c(OC)cc3CCN1C)Oc1c(OC)c(OC)cc3c1[C@H](C2)N(C)CC3 ?
3.21

I am curious: what IC50 value has been reported for COc1cc(NC(=O)NCCc2ccccc2)c2cc1Oc1ccc(cc1)C[C@H]1c3cc(c(OC)cc3CCN1C)Oc1c(OC)c(OC)cc3c1[C@H](C2)N(C)CC3 ?
7.68

More entries:
I am curious: what IC50 value has been reported for COc1ccc2cc1Oc1ccc(cc1)C[C@H]1c3cc(c(OC)cc3CCN1C)Oc1c(OC)c(OC)cc3c1[C@H](C2)N(C)CC3 ?
11

I am curious: what IC50 value has been reported for COc1cc(NC(=S)Nc2ccc(F)cc2)c2cc1Oc1ccc(cc1)C[C@H]1c3cc(c(OC)cc3CCN1C)Oc1c(OC)c(OC)cc3c1[C@H](C2)N(C)CC3 ?
2.6
